- Assay target: Substance-P receptor (Homo sapiens, UniProt P25103)
- Sequence (P25103 whole entry): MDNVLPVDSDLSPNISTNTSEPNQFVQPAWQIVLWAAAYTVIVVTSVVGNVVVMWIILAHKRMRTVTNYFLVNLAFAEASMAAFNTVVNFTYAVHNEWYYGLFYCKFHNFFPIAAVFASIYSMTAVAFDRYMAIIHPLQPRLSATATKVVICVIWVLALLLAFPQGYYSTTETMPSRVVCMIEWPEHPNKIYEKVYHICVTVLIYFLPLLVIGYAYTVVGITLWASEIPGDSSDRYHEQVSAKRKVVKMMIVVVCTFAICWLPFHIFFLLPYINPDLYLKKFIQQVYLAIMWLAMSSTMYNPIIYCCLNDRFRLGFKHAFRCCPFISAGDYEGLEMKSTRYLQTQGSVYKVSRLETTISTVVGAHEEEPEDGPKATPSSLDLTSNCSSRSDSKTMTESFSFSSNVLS
- Experimental details: Displacement of [125I]-labeled substance P from the cloned human NK1 receptor expressed in CHO cells
pIC50: −log10 of the molar value.
Recorded metric: pIC50

[A] O=C1C(c2cc(C(F)(F)F)cc(C(F)(F)F)c2)CCCN1[C@]1(c2ccccc2)CC[C@@H](N2CCC3(CCOC3)CC2)CC1 (some centres undefined)
[B] CC1(c2cc(C(F)(F)F)cc(C(F)(F)F)c2)CCN([C@]2(c3ccccc3)CC[C@@H](N3CCN(c4ccccc4Cl)C(=O)C3)CC2)C1=O (some centres undefined)
Query block: // compare measured pIC50, left A , right B , return larger Return value: the label identifying the chosen record.
Result block: B

[I] CN(C)[C@H]1CC[C@](c2ccccc2)(N2CCC(c3cc(C(F)(F)F)cc(C(F)(F)F)c3)C2=O)CC1 (some centres undefined)
[II] O=C1CN([C@H]2CC[C@](c3ccccc3)(N3CCCC(c4cc(C(F)(F)F)cc(C(F)(F)F)c4)C3=O)CC2)CCN1c1ccccc1 (some centres undefined)
Query block: Form: Entry with minimum pIC50 (choose one): I / II Return value: the label identifying the chosen record.
Result block: I
(I: 8.21, II: 8.82)
